Reported values of pIC50 for individual entries
biological target: hTREX1 (Homo sapiens, UniProt Q9NSU2); assay: hTREX1 HCT116 Cell Assay (HCT116 dual cells, Lucia luciferase reporter of Type I interferon induction); settings: TREX1i 4 h before pBR322/BstNI transfection, read after 48 h
pIC50: −log10 of the molar value.

The examples below pair each entry with its known result.
CC(c1nc(C(=O)Nc2cnoc2)c(O)c(=O)n1C)C(c1cnn(CCN(C)C)c1)c1ccccc1C#N (single isomer, unassigned) [Example 33 D1E1]
< 7.00
CC(C)c1cnn(C(c2ccccc2Cl)C(C)c2nc(C(=O)Nc3cnoc3)c(O)c(=O)n2C)c1 (single isomer, unassigned) [Example 135 D1E1]
< 7.00
CC(c1nc(C(=O)Nc2cnoc2)c(O)c(=O)n1C)C(c1ccccc1C#N)c1c(C#N)cnn1C (single isomer, unassigned) [Example 52 D1E1]
7.00 to 8.00
Cc1cc(C)n(C(c2ccccc2Cl)C(C)c2nc(C(=O)Nc3cnoc3)c(O)c(=O)n2C)n1 (single isomer, unassigned) [Example 136 D1E2]
7.00 to 8.00
Cc1ncc(C(c2ccccc2Cl)C(C)c2nc(C(=O)Nc3cnoc3)c(O)c(=O)n2C)nc1C (single isomer, unassigned) [Example 125 D2E1]
< 7.00

Moving on to the next compound.
Give pIC50; test system hTREX1 (Homo sapiens, UniProt Q9NSU2); compound CC(c1nc(C(=O)Nc2cnoc2)c(O)c(=O)n1C)C(c1cc(F)ccc1Cl)c1cn(C)nc1C#N (single isomer, unassigned) [Example 89 D1E2]
> 8.00

###

biological target: hTREX1 (Homo sapiens); assay: hTREX1 HCT116 Cell Assay (HCT116 dual cells, Lucia luciferase reporter of Type I interferon induction); details: TREX1i 4 h before pBR322/BstNI transfection, read after 48 h
Reported values of IC50 for individual entries

The examples below pair each entry with its known result.
CC(c1nc(C(=O)Nc2cnoc2)c(O)c(=O)n1C)C(c1cnn(CC(C)(C)O)c1)c1cc(F)ccc1Cl (single isomer, unassigned)
> 100 nM
CC(c1nc(C(=O)Nc2cnoc2)c(O)c(=O)n1C)C(c1cnn(C)c1)c1ccccc1Cl (single isomer, unassigned) [Example 77 D1E2]
> 100 nM

Moving on to the next compound.
Fill in IC50 for record Cc1ncc(C(c2cc(F)ccc2C#N)C(C)c2nc(C(=O)Nc3cnoc3)c(O)c(=O)n2C)nc1C (single isomer, unassigned)
10 to 100 nM

###

target: full length human TREX1 (Homo sapiens); construct: N-terminally His-Tev tagged full length human TREX1; made in house; host or cells: E. coli; assay: hTREX1 Biochemical Assay (fluorescence, dsDNA substrate degradation); conditions: biochemical, read-out: hTREX1 IC50
Sequence (Q9NSU2 whole entry): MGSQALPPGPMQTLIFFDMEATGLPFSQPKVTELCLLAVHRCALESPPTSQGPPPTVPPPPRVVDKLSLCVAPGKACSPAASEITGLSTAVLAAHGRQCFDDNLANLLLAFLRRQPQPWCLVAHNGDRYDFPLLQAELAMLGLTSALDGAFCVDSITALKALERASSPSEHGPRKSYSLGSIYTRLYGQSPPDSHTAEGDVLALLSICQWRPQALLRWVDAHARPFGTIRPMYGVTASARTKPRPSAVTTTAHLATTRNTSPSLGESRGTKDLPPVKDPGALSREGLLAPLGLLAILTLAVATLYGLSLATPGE
parameter: IC50

The examples below pair each entry with its known result.
CC(c1nc(C(=O)Nc2cnoc2)c(O)c(=O)n1C)C(c1cnn(C)c1)c1c(C#N)cccc1C#N (single isomer, unassigned) [Example 19 D2E2]
> 0.01 µM
CC(c1nc(C(=O)Nc2cnoc2)c(O)c(=O)n1C)C(c1ccccc1Cl)n1nccc1C#N (single isomer, unassigned) [Example 140 D1E2]
> 0.01 µM
CC(c1nc(C(=O)Nc2cnoc2)c(O)c(=O)n1C)C(c1ccccc1C#N)c1nnnn1C (single isomer, unassigned) [Example 131 D2E2]
> 0.01 µM
Cc1cc(C)n(C(c2ccccc2C#N)C(C)c2nc(C(=O)Nc3cnoc3)c(O)c(=O)n2C)n1 (single isomer, unassigned) [Example 137 D1E2]
> 0.01 µM
CC(c1nc(C(=O)Nc2cnoc2)c(O)c(=O)n1C)C(c1ccccc1C#N)c1c(C#N)cnn1C (single isomer, unassigned) [Example 52 D1E1]
0.001 to 0.01 µM
CC(c1nc(C(=O)Nc2cnoc2)c(O)c(=O)n1C)C(c1ccccc1C#N)c1c[nH]nc1F (single isomer, unassigned) [Example 127 D1E2]
0.001 to 0.01 µM
Cc1ccnn1C(c1ccccc1C#N)C(C)c1nc(C(=O)Nc2cnoc2)c(O)c(=O)n1C (single isomer, unassigned) [Example 138 D1E2]
> 0.01 µM
CCn1cc(C(c2ccccc2C#N)C(C)c2nc(C(=O)Nc3cnoc3)c(O)c(=O)n2C)c(C)n1 (single isomer, unassigned) [Example 70 D1E1]
< 0.001 µM

Moving on to the next molecule.
Fill in IC50 for record CC(c1nc(C(=O)Nc2cnoc2)c(O)c(=O)n1C)C(c1cnn(CC(C)(C)O)c1)c1cc(F)ccc1Cl (single isomer, unassigned) [Example 92 D1E1]
0.001 to 0.01 µM

Origin of measurements: patent US20240246946A1
